These entries and their values trace back to patent US20160280699A1.

Counter-ions that a name gives are not always drawn.
// human factor XIa (Homo sapiens) IC50 records
Reported endpoint: IC50 (nM)

NC[C@H]1CC[C@H](C(=O)N[C@@H](Cc2ccc(-c3cccnc3N)cc2)C(=O)Nc2ccc(-c3nn[nH]n3)cc2)CC1 [Example 26, hydrochloride]    3.7

A: CN1CCN(S(=O)(=O)c2cncc(-c3ccc(C[C@H](NC(=O)[C@H]4CC[C@H](CN)CC4)C(=O)Nc4ccc(-c5nnn[nH]5)cc4)cc3)c2)CC1 [Example 2, hydrochloride]
B: NC[C@H]1CC[C@H](C(=O)N[C@@H](Cc2ccc(-c3ccc(O)nc3)cc2)C(=O)Nc2ccc(-c3nn[nH]n3)cc2)CC1 [Example 17, hydrochloride]
Smaller IC50 value, A vs B ? Answer format: the label of the selected item. A

I: NC[C@H]1CC[C@H](C(=O)N[C@@H](Cc2ccc(-c3ccc(N4CCOCC4)nc3)cc2)C(=O)Nc2ccc(-c3nn[nH]n3)cc2)CC1 [Example 7, hydrochloride]
II: NC[C@H]1CC[C@H](C(=O)N[C@@H](Cc2ccc(-c3cncc(Cl)c3)cc2)C(=O)Nc2ccc(-c3nn[nH]n3)cc2)CC1 [Example 10, hydrochloride]
In the pair I and II , the larger recorded IC50 belongs to which? Answer format: the label of the selected item. II
